- Experiment notes: Solubility of the compound at pH 1.2
- Type: physicochemical
- Setup conditions: buffer
Quantity kind: solubility (µg/mL)
One number for each entry, in µg/mL.

Task: Assign solubility to the following record: CS(=O)(=O)N1CCC(C(O)(c2cncnc2Nc2ccc(F)cc2)C(F)(F)F)CC1 (racemic)
Output: 860
